tested on: CAOV3; assay: Primary qHTS to identify gynecologic anti-cancer compounds using libraries of approved drugs and bioactive compounds (AID 1345084); conditions: Gynecologic cancer cell panel viability, ATPlite luminescence, 48 h; series mostly up to 57.5 µM; also: nearly all actives have a fitted effect of over 55% in size
Records with an inconclusive call do not appear. Active and inactive are the calls of the source. Calls follow the shape of the dose curve; as a rule, active = well fitted cell-killing curve with a large enough effect; inconclusive = small, poorly fitted or top-dose-only effect, or effect the other way; inactive = flat fitted curve, though single readings scatter.
I would appreciate it if you answered using one of these outcomes: Y for active, N for inactive

// below: answered compounds
COMPOUND	ASSIGNED CLASS
CCn1cc(NC(=S)Nc2cc(Cl)ccc2OC)c(C(N)=O)n1	N
CNC(=O)c1cc(Oc2ccc3nc(N[C@@H]4CCCC[C@H]4O)sc3c2)ccn1	N
CCN(CC)Cc1ccc(C(=O)N(CCc2ccccc2OC)[C@@H]2CCNC2)cc1	N
COc1ccc([C@@H]2OC[C@H]3[C@@H]2CO[C@@H]3c2ccc(OC3OC(CO)C(O)C(O)C3O)c(OC)c2)cc1OC (some centres undefined)	N
C[C@H](CCC(=O)O)[C@H]1CC[C@H]2[C@@H]3C[C@H](O)[C@@H]4C[C@H](O)CC[C@]4(C)[C@H]3CC[C@]12C	N
Cc1cc(Nc2nc(NC(C)c3ncc(F)cn3)ncc2Cl)n[nH]1 (centres undefined)	N
CC(=O)O[C@@H]1C[C@@H](OC(C)=O)C(C)(C)/C=C/[C@H](C)[C@H](OC(C)=O)[C@@]2(O)C[C@H](C)[C@H](OC(=O)c3ccccc3)[C@@H]2/C=C/1C	N
Nc1ncnc2c1nc(N)n2[C@@H]1O[C@H](CO)[C@@H](O)[C@H]1O	Y

(Q) State the result this test recorded for C/C(=C\C=C\C(C)C1CCC2(C)C3CCC4C(C)(C)C(=O)CCC45CC35CCC12C)C(=O)O (centres undefined) .
(A) N

(Q) // query: `CC(C)c1nc(-c2ccc(NC(=O)Nc3cccc(C(F)(F)F)c3)c3ccccc23)c2c(N)nccn12`
(A) Y

(Q) What about CC1CCC2(OC1)OC1CC3C4CCC5C[C@@H](O[C@@H]6O[C@H](CO[C@@H]7OC[C@@H](O)[C@H](O)[C@H]7O)[C@H](O)[C@H](O)[C@H]6O)CC[C@]5(C)C4CC[C@]3(C)C1C2C (some centres undefined) ?
(A) N

(Q) For `O=C(O)c1c(O)c(-c2ccccc2)nc2ccccc12` then?
(A) N

(Q) What about this compound? CC1=CC2/C=C(\C)CC[C@@H](O)[C@@H](O)[C@@H]3O[C@@H]3C(=O)[C@]23C(=O)N[C@@H](CC(C)C)[C@@H]3[C@@H]1C (some centres undefined)
(A) N

(Q) Can you check `CC(=O)O[C@@H]1[C@@H](OC(=O)/C=C/c2ccccc2)[C@@H](OC(C)=O)[C@H](O[C@H]2[C@@H]3C=CO[C@@H](O[C@@H]4O[C@H](CO)[C@@H](O)[C@H](O)[C@H]4O)[C@@H]3[C@@]3(CO)O[C@@H]23)O[C@H]1C` next?
(A) N

----------
molecular target: Cytochrome P450 2C9 (Homo sapiens); assay: Cytochrome P450 family 2 subfamily C member 9 (CYP2C9) small molecule antagonists: luciferase biochemical (cell-free) qHTS assay (AID 1645842); details: P450-Glo CYP2C9 enzyme assay, luciferin luminescence; series mostly up to 57.4 µM; also: nearly all actives have a fitted effect of over 55% in size
Inconclusive results are not listed. Active and inactive are the calls of the source. The call rests on the fitted dose curve; in most records, active means well fitted inhibition curve with a large enough effect in the repeat runs; inconclusive means weak or mixed curves; inactive means no such curve, though single readings can be large or run the other way.
Bench note: report the call from T (active), F (inactive)

(Q) Please let me know the test result on file for `CC(=O)NC[C@H]1CN(c2ccc(N3CCN(C(=O)CO)CC3)c(F)c2)C(=O)O1` .
(A) F

(Q) What do you have for `CCn1c(=O)c(-c2ccn[nH]2)cc2c(C)nc(N)nc21` ?
(A) T

(Q) Subsequent entry: CC(NC(=O)CCc1nc2ccccc2c(=O)[nH]1)c1ccccc1 (stereo not given)
(A) F

(Q) Try this compound too: `Cc1ccc(N)cc1O`
(A) T

(Q) Further, for `c1ccc(N2CCN(CCc3nn[nH]n3)CC2)cc1` ?
(A) T

(Q) Could you do the same for `Cc1onc(C(=O)N2CCN(C(c3ccc(Cl)cc3)c3ccc(Cl)cc3)CC2)c1[N+](=O)[O-]` , please?
(A) T

(Q) Proceed to `C[C@@H]1CCN(C(=O)N2CCCC2)C[C@@H]1N(C)c1ncnc2[nH]ccc12`
(A) F

(Q) Quick one: `Cc1csc(NC(=O)c2ccc(COc3cccc(Cl)c3)o2)n1`
(A) T

(Q) Ok, now CNC(=O)c1ccccc1Nc1nc(Nc2ccc3c(c2OC)CCCC(N2CCN(CCO)CC2)C3)ncc1Cl (stereo not given)
(A) F

(Q) Same thing, different compound: `CC[C@@](C)(Nc1ccnc(-c2c[nH]c3ncccc23)n1)C(=O)NCC(F)(F)F`
(A) T
